Biological target: Kainate
Experiment: Radioligand binding, Kainate, [3H]KA
Conditions: reference compound, [3H]KA
quantity measured: Ki
Mention the unit after the number when you answer.

# compound C=C(C)[C@H]1CN[C@H](C(=O)O)[C@H]1CC(=O)O [Kainic Acid, reference compound] ; its Ki = 24.9 nM

----------
Tested on: maximal electroshock seizures
Assay: Maximal electroshock seizure (MES) test in the rat, p.o.
Conditions: rat, p.o.
quantity measured: P.I. MES (TD50/ED50)

The cases that follow already have their P.I. MES (TD50/ED50) on record.
# compound Clc1ccc(NCc2ccncc2)cc1 [Compound 11, 1-(4-Chloroanilino)-1-(4-pyridyl)-methan] ; its P.I. MES (TD50/ED50) = > 12.8

# compound CC(Nc1ccc(Cl)cc1)c1ccncc1 (centres unmarked) [Compound 2, 1-(4-Chloroanilino)-1-(4-pyridyl)-ethan] ; its P.I. MES (TD50/ED50) = > 20.53

# compound CC(Nc1ccc(Br)cc1)c1ccncc1 (centres unmarked) [Compound 4, 1-(4-Bromoanilino)-1-(4-pyridyl)-ethan] ; its P.I. MES (TD50/ED50) = > 23.93

More entries:
# compound CC(Nc1ccccc1)c1ccncc1 (centres unmarked) [Compound 8, 1-(Anilino)-1-(4-pyridyl)-ethan] ; its P.I. MES (TD50/ED50) = > 10.33

# compound CC(Nc1ccc(F)cc1)c1ccncc1 (centres unmarked) [Compound 5, 1-(4-Fluoroanilino)-1-(4-pyridyl)-ethan] ; its P.I. MES (TD50/ED50) = > 6.17

----------
System: Sigma
Assay: Radioligand binding, Sigma, [3H]DTG
Settings: σ receptor population
quantity measured: inhibition of the binding of [3H]DTG (in words)

# compound `Clc1cccc(NCc2ccncc2)c1` ; its inhibition of the binding of [3H]DTG (in words) = inhibit selectively

# compound `Clc1ccc(NCc2ccncc2)cc1Cl` ; its inhibition of the binding of [3H]DTG (in words) = inhibit selectively

# compound CC(Nc1ccc(Cl)cc1)c1ccncc1 (stereo not shown) ; its inhibition of the binding of [3H]DTG (in words) = inhibit selectively

# compound CC(Nc1ccc(F)cc1)c1ccncc1 (stereo not shown) ; its inhibition of the binding of [3H]DTG (in words) = inhibit selectively

----------
Molecular target: PCF
Experiment: Radioligand binding, PCP, [3H]TCP
Conditions: reference compound, [3H]TCP
quantity measured: pKi
Entry type: numeric. Quantity: pKi, the -log10 of concentration in molar units.

# molecule c1ccc(C2(N3CCCCC3)CCCCC2)cc1 [PCP, phencyclidine, reference compound] ; its pKi = 7.21

----------
Tested on: PCF
Experiment: Radioligand binding, PCP, [3H]TCP
From the text: EAAs are known to play important roles in excitatory neurotransmission in partial seizures as discussed earlier. […] Thus, several aminoalkylpyridines of this invention are effective antagonists of NMDA-receptor mediated EAA neurotransmission and function as noncompetitive NMDA antagonists and thus can be used to advantage in epilepsy, stroke and Alzheimer's disease. […] Values are expressed as the percent inhibition of specific binding and […]
quantity measured: activity at the [3H]TCP-binding receptor sites / PCP receptors (in words)

# compound `Clc1cccc(NCc2ccncc2)c1` ; its activity at the [3H]TCP-binding receptor sites / PCP receptors (in words) = no activity

# compound CC(Nc1cccc(Cl)c1)c1ccncc1 (centres unmarked) ; its activity at the [3H]TCP-binding receptor sites / PCP receptors (in words) = no activity

# compound CC(Nc1ccc(Br)cc1)c1ccncc1 (centres unmarked) ; its activity at the [3H]TCP-binding receptor sites / PCP receptors (in words) = no activity

# compound `Clc1ccc(NCc2ccncc2)cc1Cl` ; its activity at the [3H]TCP-binding receptor sites / PCP receptors (in words) = no activity

# compound CC(Nc1ccc(Cl)c(Cl)c1)c1ccncc1 (centres unmarked) ; its activity at the [3H]TCP-binding receptor sites / PCP receptors (in words) = no activity

# compound CC(Nc1ccc(Cl)cc1)c1ccncc1 (centres unmarked) ; its activity at the [3H]TCP-binding receptor sites / PCP receptors (in words) = no activity

# compound CC(Nc1ccc(F)cc1)c1ccncc1 (centres unmarked) ; its activity at the [3H]TCP-binding receptor sites / PCP receptors (in words) = no activity

More entries:
# compound Cc1ccc(NC(C)c2ccncc2)cc1 (centres unmarked) ; its activity at the [3H]TCP-binding receptor sites / PCP receptors (in words) = no activity
